Assay: Stability of pitavastatin calcium crystalline form at 40° C./75% RH and 25° C./60% RH (water by KF, related substances)
Type: physicochemical
Details: 3 month, 40° C. ± 2° C., RH 75% ± 5%
Readout: Related Substances: Lactone (%)
Report the value in % with no unit label.

What value of measured Related Substances: Lactone is listed for O=C(O)C[C@H](O)C[C@H](O)/C=C/c1c(C2CC2)nc2ccccc2c1-c1ccc(F)cc1 ?
0.09

----------
Assay: Stability of pitavastatin calcium crystalline form at 40° C./75% RH and 25° C./60% RH (water by KF, related substances)
Assay type: physicochemical
Details: 3 month, 40° C. ± 2° C., RH 75% ± 5%
Method: In general, the stability of pitavastatin calcium crystalline form having water content 5% wt/wt at 40° C./75% RH and 25° C./60% RH is shown in Table-1.
Readout: Related Substances: 5-oxo (%)
Report the value in % with no unit label.

What value of measured Related Substances: 5-oxo is listed for O=C(O)C[C@H](O)C[C@H](O)/C=C/c1c(C2CC2)nc2ccccc2c1-c1ccc(F)cc1 ?
0.14
